Just for reference, patent US7470711B2 is where these values come from.

molecular target: α1b-AR (Homo sapiens); construct: expressed in transfected cells; host or cells: COS-7 cells (membranes); assay: α1-Adrenergic receptor radio-ligand binding assay, α1b subtype
Sequence (P35368 whole entry): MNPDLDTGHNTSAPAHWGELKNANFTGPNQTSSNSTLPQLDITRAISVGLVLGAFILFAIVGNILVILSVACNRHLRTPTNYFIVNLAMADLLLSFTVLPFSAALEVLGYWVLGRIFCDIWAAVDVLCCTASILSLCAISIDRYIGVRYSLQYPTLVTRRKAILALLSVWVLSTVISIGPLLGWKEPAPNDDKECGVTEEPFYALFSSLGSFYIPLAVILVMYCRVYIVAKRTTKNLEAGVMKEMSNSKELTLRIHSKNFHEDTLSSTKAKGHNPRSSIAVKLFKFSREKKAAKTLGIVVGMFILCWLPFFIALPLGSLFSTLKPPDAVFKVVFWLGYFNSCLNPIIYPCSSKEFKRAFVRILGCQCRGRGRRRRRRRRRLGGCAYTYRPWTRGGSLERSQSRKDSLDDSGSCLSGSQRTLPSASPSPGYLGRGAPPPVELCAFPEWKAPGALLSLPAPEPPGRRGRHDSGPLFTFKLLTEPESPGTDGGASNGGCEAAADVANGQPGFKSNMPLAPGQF
Cut-off 300 nM on Ki: below means True, at or above means False.

Quick check: does `COc1ccc(S(=O)(=O)N[C@H]2CC[C@@H](N3CCC(c4ccccc4OCC(F)(F)F)CC3)CC2)cc1OC` have Ki under 300 nM?
False

Regarding `O=S(=O)(N[C@H]1CC[C@@H](N2CCC(c3ccccc3OCC(F)(F)F)CC2)CC1)c1ccc2c(c1)OCCO2` , kindly confirm whether its Ki is beneath 300 nM.
True

Item `COc1ccc(S(=O)(=O)N[C@H]2CC[C@H](N3CCC(c4ccccc4OCC(F)(F)F)CC3)CC2)cc1OC` : Ki beneath 300 nM, strictly?
False

Given the entry `O=S(=O)(N[C@H]1CC[C@@H](N2CCC(c3ccccc3OC3CC3)CC2)CC1)c1ccc2c(c1)OCO2` , would its reported Ki be below 300 nM?
True

Does this molecule meet the criterion Ki < 300 nM? `O=S(=O)(N[C@H]1CC[C@H](N2CCC(c3ccccc3OC3CC3)CC2)CC1)c1ccc2c(c1)OCO2`
False

Criterion: Ki strictly below 300 nM. Is it met by `O=S(=O)(N[C@H]1CC[C@H](N2CCC(c3ccccc3OCC(F)(F)F)CC2)CC1)c1ccc2c(c1)OCCO2` ?
True

---

Could you please report measured Ki for the items listed next?
Molecular target: α1a-AR (Homo sapiens)
Construct: expressed in transfected cells; host or cells: COS-7 cells (membranes)
Sequence (P35348 1-455 isoform P35348-4): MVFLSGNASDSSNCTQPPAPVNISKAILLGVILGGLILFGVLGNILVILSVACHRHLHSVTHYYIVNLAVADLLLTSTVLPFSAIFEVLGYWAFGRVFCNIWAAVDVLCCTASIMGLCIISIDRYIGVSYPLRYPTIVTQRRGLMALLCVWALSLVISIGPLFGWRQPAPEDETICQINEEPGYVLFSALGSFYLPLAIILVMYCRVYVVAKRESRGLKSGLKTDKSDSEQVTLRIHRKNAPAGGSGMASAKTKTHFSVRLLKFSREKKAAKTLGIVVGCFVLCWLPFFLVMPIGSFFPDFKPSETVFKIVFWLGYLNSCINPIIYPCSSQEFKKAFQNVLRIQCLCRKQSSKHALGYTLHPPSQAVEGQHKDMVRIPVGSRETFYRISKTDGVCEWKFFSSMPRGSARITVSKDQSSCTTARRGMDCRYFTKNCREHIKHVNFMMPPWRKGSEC
Assay: α1-Adrenergic receptor radio-ligand binding assay, α1a subtype
Conditions: 125I-HEAT, membranes of COS-7 cells transfected with α1a subtype, rt 1 hr; read-out: Receptor Binding, Ki α1a-AR
Method: Membranes were prepared from COS-7 cells (African Green monkey kidney SV40-transformed cells) that had been transfected with one of the three α1-AR subtypes (Genbank accession number for the α1a subtype: AF013261; Genbank accession number for the α1b subtype: NM000679; Genbank accession number for the α1d subtype: NM000678) using the following method: COS cells from ten 100 mm tissue culture plates were scraped into a 5 mL volume of TE (a mixture of 50 mM Tris-HCl, 5 mM EDTA, pH 7.4). […]
I only need the number, in nM, no unit after it.

Please report Ki for the following compound: `COc1ccc(S(=O)(=O)N[C@H]2CC[C@H](N3CCC(c4ccccc4OC(C)C)CC3)CC2)cc1OC`
27.8

Give the reported Ki for this compound. `COc1ccc(Cl)cc1S(=O)(=O)N[C@H]1CC[C@@H](N2CCC(c3ccccc3OC3CC3)CC2)CC1`
1.3

Recall and state the measured Ki for `COc1ccc(Cl)cc1S(=O)(=O)N[C@H]1CC[C@@H](N2CCC(c3ccccc3OCC(F)(F)F)CC2)CC1` .
6.2

Give the measured Ki for `O=S(=O)(N[C@H]1CC[C@H](N2CCC(c3ccccc3OCC(F)(F)F)CC2)CC1)c1cccc(OC(F)F)c1`
12

Consider the compound `O=S(=O)(N[C@H]1CC[C@H](N2CCC(c3ccccc3OC3CC3)CC2)CC1)c1cc(Cl)ccc1F` . State its measured Ki.
3.8

Please report the measured Ki for `CC(C)Oc1ccccc1C1CCN([C@H]2CC[C@@H](NS(=O)(=O)c3ccc(F)c(F)c3)CC2)CC1`
3

Provide one value: measured Ki of `COc1ccc(S(=O)(=O)N[C@H]2CC[C@H](N3CCC(c4ccccc4OCCF)CC3)CC2)cc1OC`
68.8
